Data credit: patent US20260209334A1

Target: T1, human IL-17A homodimer, bacterially expressed construct (residues 40-155 with GSEDS spacer) (human, UniProt Q16552 40-155)
T1 chain: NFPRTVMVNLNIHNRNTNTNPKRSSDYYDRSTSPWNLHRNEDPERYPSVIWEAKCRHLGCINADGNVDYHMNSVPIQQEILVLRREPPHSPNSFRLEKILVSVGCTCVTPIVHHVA
Assay: BLI, biotinylated VHH immobilized on streptavidin sensors, IL-17 as analyte (10, 20, 40 nM), mass transport fit; apparent value, avidity possible;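 also: wavelength shift (nm) signal, 800 s association then 800 s dissociation, reference from parallel sensors without VHH, avidity from immobilized VHH may lower apparent off-rates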
Metric: kon (M⁻¹ s⁻¹)
# value in M⁻¹ s⁻¹; strip the unit string

Illustrative cases are given below, each with its answer.
{"Binder": "Bm18F11 with C-terminal Avi-Biotin-tag, biotinylated (VHH, biotin on the C-terminal Avi-tag (BirA), not shown: C-terminal Avi-Biotin-tag) VHH: QVQLVESGGDLVQAGGSLRLSCAASGLTGSSYAMGWFRQAPGKEREFVAAISWISGDTKYTDSVKGRFTMSRDNAKKQVYLEMNSLKPEDTAVYYCNDMPYGLDTRMDEYVYWGQGTQVTVSS", "Unit of measurement": "M⁻¹ s⁻¹", "kon": 95000}
{"Binder": "Re42B03 with C-terminal Avi-Biotin-tag, biotinylated (VHH, biotin on the C-terminal Avi-tag (BirA), not shown: C-terminal Avi-Biotin-tag) VHH: QVQLVESGGGLVQAGGSLRLSCAASGLTGSSYAMGWFRQAPGKEREFVAAISWISGGTKYTDSVKDRFTMSRDYAKKQVYLEMNSLKPEDTAVYYCNDMPYGLDTRMDEYVYWGQGTQVTVSS", "Unit of measurement": "M⁻¹ s⁻¹", "kon": 120000}

Prompt line: For the binder Re42H11 with C-terminal Avi-Biotin-tag, biotinylated (VHH, biotin on the C-terminal Avi-tag (BirA), not shown: C-terminal Avi-Biotin-tag) VHH: QVQLVESGGGLVQAGGSLRLSCAASGLTASSYAMGWFRQAPGKEREFVAAISWISGGTKYADSVKGRFTMSRDNAKKQVYLEMNSLKPEDTAVYYCNDMPYGLDTRMDEYAYWGQGTQVTVSS , what kon is on record?
Response line: 120000

Prompt line: What value of measured kon is listed for Bm18B05 with C-terminal Avi-Biotin-tag, biotinylated (VHH, biotin on the C-terminal Avi-tag (BirA), not shown: C-terminal Avi-Biotin-tag) VHH: QVQLVESGGGLVQPGGSLRLSCAVSGRTFSSYAMGWFRRPPGKEREFVAAISWSGGDTKYADFVTDRFTISRDDAKSTVYLQMNSLKPEDTAVYYCNDMPYGLDTRMDEYEYWGQGTQVTVSS ?
Response line: 260000

Prompt line: # get_value(readout='kon', item= Re42B04 with C-terminal Avi-Biotin-tag, biotinylated (VHH, biotin on the C-terminal Avi-tag (BirA), not shown: C-terminal Avi-Biotin-tag) VHH: QVQLVESGGGLVQVGGSLRLSCEVSGLPVSSYAMGWFRQAPEKEREFVAAISWIGGDSRYAHFVKGRFTISRDNAKNTVHLQMDSLKPEDTAVYYCNDMPYGLDTRMDEYEYWGLGTQVTVSS )
Response line: 110000
